B1: TPR t1 (parent)
chain: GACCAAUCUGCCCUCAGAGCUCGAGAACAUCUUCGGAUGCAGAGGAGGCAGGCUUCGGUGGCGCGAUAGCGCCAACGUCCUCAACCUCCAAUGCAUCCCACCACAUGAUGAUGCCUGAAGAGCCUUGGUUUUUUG

variants of: B1; assay: polymerase ribozyme fitness, log enrichment relative to wild type (log ratio); higher = more active; in vitro selection for triplet polymerase activity
Can you tell me polymerase ribozyme fitness (log ratio) for the items I'm about to list?
Give only the figure.

Q: # query: polymerase ribozyme fitness (log ratio) of entry G42C C115U G120U U129G
Result: -4.74

Q: # query: polymerase ribozyme fitness (log ratio) of entry G47U C89U
Result: -3.28

Q: # query: polymerase ribozyme fitness (log ratio) of entry C8G C28A C72G
Result: -3.76

Q: # query: polymerase ribozyme fitness (log ratio) of entry C12A G107C A119C G120A
Result: -4.18

Q: # query: polymerase ribozyme fitness (log ratio) of entry C3U C12U A46G A50G C101A C104U
Result: -0.987

Q: # query: polymerase ribozyme fitness (log ratio) of entry G19A A29C U109A G120C
Result: -5.43

Q: # query: polymerase ribozyme fitness (log ratio) of entry C22A C34G
Result: -6.64

Q: # query: polymerase ribozyme fitness (log ratio) of entry C13G G45U C89A G120U U130A
Result: -3.41

Q: # query: polymerase ribozyme fitness (log ratio) of entry C20A C101U
Result: -3.43

Q: # query: polymerase ribozyme fitness (log ratio) of entry A6U C76G
Result: -0.287

Q: # query: polymerase ribozyme fitness (log ratio) of entry A46U A111G
Result: -1.48

Q: # query: polymerase ribozyme fitness (log ratio) of entry G45U U55C
Result: -1.88

Q: # query: polymerase ribozyme fitness (log ratio) of entry C8U A43G C89G C98U G135U
Result: -4.02

Q: # query: polymerase ribozyme fitness (log ratio) of entry C12G C62G A108G
Result: -3.58

Q: # query: polymerase ribozyme fitness (log ratio) of entry A18G C70U
Result: -2.4

Q: # query: polymerase ribozyme fitness (log ratio) of entry A18U G42U
Result: -2.23

Q: # query: polymerase ribozyme fitness (log ratio) of entry G69C C85U
Result: -1.8

Q: # query: polymerase ribozyme fitness (log ratio) of entry C4A G61C A84U
Result: -4.45

Q: # query: polymerase ribozyme fitness (log ratio) of entry C72U A111U
Result: -2.46

Q: # query: polymerase ribozyme fitness (log ratio) of entry A5G C12U G113U U125C
Result: -2.74

Q: # query: polymerase ribozyme fitness (log ratio) of entry C73G G128A
Result: -2.13

Q: # query: polymerase ribozyme fitness (log ratio) of entry A6U G19A
Result: -2.37

Q: # query: polymerase ribozyme fitness (log ratio) of entry G57U C82G G110U
Result: -2.25

Q: # query: polymerase ribozyme fitness (log ratio) of entry C34A C104U
Result: -2.35

Q: # query: polymerase ribozyme fitness (log ratio) of entry C11G U32A C34U C115G
Result: -8.31

Q: # query: polymerase ribozyme fitness (log ratio) of entry A6U C88U G128A
Result: -2.51

Q: # query: polymerase ribozyme fitness (log ratio) of entry A74C C79A U131G
Result: -0.848

Q: # query: polymerase ribozyme fitness (log ratio) of entry A29U U54G
Result: -2.02

Q: # query: polymerase ribozyme fitness (log ratio) of entry A16G A29G G44A U87G A121C
Result: -2.16

Q: # query: polymerase ribozyme fitness (log ratio) of entry A41U U130C
Result: -1.35

Q: # query: polymerase ribozyme fitness (log ratio) of entry C34G A37U U55G C72G U92C C124A
Result: -5.91

Q: # query: polymerase ribozyme fitness (log ratio) of entry C3A C20A C49G A50C G61U
Result: -5.32

Q: # query: polymerase ribozyme fitness (log ratio) of entry G60A G113C G135U
Result: -5.16

Q: # query: polymerase ribozyme fitness (log ratio) of entry C40G C56G C124G G127U
Result: -0.222

Q: # query: polymerase ribozyme fitness (log ratio) of entry C11U G44C G61U C104U U116C
Result: -2.32

Q: # query: polymerase ribozyme fitness (log ratio) of entry U32C C62U G77C A100C U106G
Result: -3.33

Q: # query: polymerase ribozyme fitness (log ratio) of entry C62U C124U
Result: 0.977

Q: # query: polymerase ribozyme fitness (log ratio) of entry C11U G19A C49U C56U U59C C114U
Result: -2.93

Q: # query: polymerase ribozyme fitness (log ratio) of entry G35C U38G G63C C123A U129A
Result: -5.52

Q: # query: polymerase ribozyme fitness (log ratio) of entry C79U G117C
Result: -3.9

Q: # query: polymerase ribozyme fitness (log ratio) of entry G19C C72A C124A U129G
Result: -0.719

Q: # query: polymerase ribozyme fitness (log ratio) of entry U9G G71U
Result: 0.107

Q: # query: polymerase ribozyme fitness (log ratio) of entry G36C G52C C70A U106A
Result: -2.71

Q: # query: polymerase ribozyme fitness (log ratio) of entry C13U C53G C56A
Result: -0.438

Q: # query: polymerase ribozyme fitness (log ratio) of entry G35A G42C
Result: -5.64

Q: # query: polymerase ribozyme fitness (log ratio) of entry C11A C12U G71U A84C
Result: -1.73

Q: # query: polymerase ribozyme fitness (log ratio) of entry G63A G110C C115G G120U
Result: -7.28

Q: # query: polymerase ribozyme fitness (log ratio) of entry U38G G47C C114A
Result: -5.64

Q: # query: polymerase ribozyme fitness (log ratio) of entry A66C A91U
Result: -4.65

Q: # query: polymerase ribozyme fitness (log ratio) of entry U14A C56U C73U U112G G120C
Result: -1.15

Q: # query: polymerase ribozyme fitness (log ratio) of entry C28U G60C
Result: -3.11

Q: # query: polymerase ribozyme fitness (log ratio) of entry G63U G128A
Result: -3.29

Q: # query: polymerase ribozyme fitness (log ratio) of entry C13U
Result: 0.225

Q: # query: polymerase ribozyme fitness (log ratio) of entry C4U G51C
Result: -2.89

Q: # query: polymerase ribozyme fitness (log ratio) of entry C28A C72A C123G U126C
Result: -2

Q: # query: polymerase ribozyme fitness (log ratio) of entry C12U A41U A50U G57C C76G C99U
Result: -7.02

Q: # query: polymerase ribozyme fitness (log ratio) of entry C3U G77U G120C
Result: 0.534

Q: # query: polymerase ribozyme fitness (log ratio) of entry C79G C102U
Result: -4.67

Q: # query: polymerase ribozyme fitness (log ratio) of entry G71C U87A C123A
Result: -2.66

Q: # query: polymerase ribozyme fitness (log ratio) of entry C15A G60U
Result: -2.01

Q: # query: polymerase ribozyme fitness (log ratio) of entry A18U U81A C114A
Result: -3.7

Q: # query: polymerase ribozyme fitness (log ratio) of entry G60U C104U U116A
Result: -2.99

Q: # query: polymerase ribozyme fitness (log ratio) of entry C8G C98G
Result: -5.23

Q: # query: polymerase ribozyme fitness (log ratio) of entry A37C G44A C53U C104U
Result: -1.64

Q: # query: polymerase ribozyme fitness (log ratio) of entry A37C U54A C64U U109A
Result: -6.92

Q: # query: polymerase ribozyme fitness (log ratio) of entry U9A G61U C89U U92A U129A
Result: -3.6

Q: # query: polymerase ribozyme fitness (log ratio) of entry C11U G36U G117A C124U
Result: -5.7

Q: # query: polymerase ribozyme fitness (log ratio) of entry G42A A74C G120C
Result: -2.11

Q: # query: polymerase ribozyme fitness (log ratio) of entry G17A G63A
Result: -4.79

Q: # query: polymerase ribozyme fitness (log ratio) of entry G51U C62G
Result: -5.98

Q: # query: polymerase ribozyme fitness (log ratio) of entry C20U G71A
Result: -1.94

Q: # query: polymerase ribozyme fitness (log ratio) of entry A6U C98A
Result: -3.74

Q: # query: polymerase ribozyme fitness (log ratio) of entry C12A G61U A66C U78C C80A G107U C114U G127C
Result: -6.6

Q: # query: polymerase ribozyme fitness (log ratio) of entry C20A C40U U59A G117U G128C
Result: -4.96

Q: # query: polymerase ribozyme fitness (log ratio) of entry A5U C56G A74U G110A U116G C124G G135U
Result: -6.08

Q: # query: polymerase ribozyme fitness (log ratio) of entry G63U C89U
Result: -1.85

Q: # query: polymerase ribozyme fitness (log ratio) of entry U14G G45A C102U
Result: -5.41

Q: # query: polymerase ribozyme fitness (log ratio) of entry G71A U129G
Result: -2.44

Q: # query: polymerase ribozyme fitness (log ratio) of entry C56U A105C C123U
Result: -1.18

Q: # query: polymerase ribozyme fitness (log ratio) of entry C13U G45U C82U
Result: -0.895

Q: # query: polymerase ribozyme fitness (log ratio) of entry A27G C49A U96A
Result: -3.34

Q: # query: polymerase ribozyme fitness (log ratio) of entry G120A U132C
Result: 0.977

Q: # query: polymerase ribozyme fitness (log ratio) of entry C49U G113U G117U
Result: -5.67

Q: # query: polymerase ribozyme fitness (log ratio) of entry G45A C49A
Result: -0.473

Q: # query: polymerase ribozyme fitness (log ratio) of entry C56U C80A
Result: -1.98

Q: # query: polymerase ribozyme fitness (log ratio) of entry G45U C64U U96A G110A G120C
Result: -4.67

Q: # query: polymerase ribozyme fitness (log ratio) of entry G69U C70A
Result: -1.51

Q: # query: polymerase ribozyme fitness (log ratio) of entry G48A C94G
Result: -1.71

Q: # query: polymerase ribozyme fitness (log ratio) of entry A16U A37U G69U U106C G120U
Result: -0.0765

Q: # query: polymerase ribozyme fitness (log ratio) of entry G60C C82G
Result: -0.49

Q: # query: polymerase ribozyme fitness (log ratio) of entry U81G U112A
Result: -4.16
